# Measured on: human dopamine D1 receptor (Homo sapiens, UniProt P21728)
# Sequence (P21728 whole entry): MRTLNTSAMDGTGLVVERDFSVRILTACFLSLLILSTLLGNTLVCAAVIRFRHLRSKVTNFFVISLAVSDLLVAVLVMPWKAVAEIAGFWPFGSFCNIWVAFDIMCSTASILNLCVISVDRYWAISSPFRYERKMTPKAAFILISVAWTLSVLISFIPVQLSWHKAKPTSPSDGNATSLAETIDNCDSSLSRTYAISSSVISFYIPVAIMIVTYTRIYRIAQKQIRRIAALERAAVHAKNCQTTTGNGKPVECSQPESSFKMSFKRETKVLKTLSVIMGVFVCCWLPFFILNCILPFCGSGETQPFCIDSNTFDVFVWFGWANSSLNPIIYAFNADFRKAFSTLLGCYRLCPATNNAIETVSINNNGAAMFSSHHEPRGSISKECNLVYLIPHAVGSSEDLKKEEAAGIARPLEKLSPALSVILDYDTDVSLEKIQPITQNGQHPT
# Run description: cell-based
pIC50: −log10 of the molar value.
Quantity measured: pIC50

>  <Compound>
O=C(/C=C/c1ccc(O)cc1)c1ccc(O)cc1O [Isoliquiritigenin, 4,2′,4′-Trihydroxychalcone]

>  <Quantity measured>
pIC50

>  <Reported measurement>
4.16

$$$$

----------
# Measured on: hMAO-A (Homo sapiens, UniProt P21397)
# Sequence (P21397 whole entry): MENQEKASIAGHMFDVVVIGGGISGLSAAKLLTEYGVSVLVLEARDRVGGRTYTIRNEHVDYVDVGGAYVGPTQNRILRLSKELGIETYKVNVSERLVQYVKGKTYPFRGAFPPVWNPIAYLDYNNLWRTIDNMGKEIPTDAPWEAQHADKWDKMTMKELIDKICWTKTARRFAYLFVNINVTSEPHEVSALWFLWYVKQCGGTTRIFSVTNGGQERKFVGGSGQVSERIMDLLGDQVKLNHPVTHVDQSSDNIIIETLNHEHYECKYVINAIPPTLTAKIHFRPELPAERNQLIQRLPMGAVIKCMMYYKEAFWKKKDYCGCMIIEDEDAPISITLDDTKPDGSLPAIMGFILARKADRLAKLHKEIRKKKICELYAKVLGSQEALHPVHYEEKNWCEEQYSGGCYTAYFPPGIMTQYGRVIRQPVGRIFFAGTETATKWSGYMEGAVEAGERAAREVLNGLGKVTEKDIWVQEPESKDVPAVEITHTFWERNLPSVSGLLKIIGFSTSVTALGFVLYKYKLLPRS
# Run description: Recombinant hMAO-A inhibitory assay (luminescent) and enzyme kinetics
# Study conditions: inhibition constant from secondary plots

>  <Compound>
O=C(/C=C/c1ccc(O)cc1)c1ccc(O)cc1O [Isoliquiritigenin, 4,2′,4′-Trihydroxychalcone]

>  <U>
nM

>  <Ki>
160

$$$$

The reported numbers originate from paper PMC8651714.
